Taken from patent US20240132624A1.

Biological target: T1, cyno FcRn/b2M (cyno, UniProt Q8SPV9 24-297; Q8SPW0 21-119, biotinylated)
T1 construct: bought recombinant biotinylated protein (Immunitrack ITF05 or ACRO FCM-C82W5); also called cFcRn; cFcRn/cb2M
T1 sequence (Q8SPV9 24-297 limits assumed, chain 1 of 2): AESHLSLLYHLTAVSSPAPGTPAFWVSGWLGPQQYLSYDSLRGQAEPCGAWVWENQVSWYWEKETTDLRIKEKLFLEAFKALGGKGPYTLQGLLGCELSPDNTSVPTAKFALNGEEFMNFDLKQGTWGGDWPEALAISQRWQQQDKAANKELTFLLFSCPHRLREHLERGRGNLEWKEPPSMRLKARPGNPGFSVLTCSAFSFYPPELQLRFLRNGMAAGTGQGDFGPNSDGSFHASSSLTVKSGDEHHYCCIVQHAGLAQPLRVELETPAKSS
T1 sequence (Q8SPW0 21-119 limits assumed, chain 2 of 2): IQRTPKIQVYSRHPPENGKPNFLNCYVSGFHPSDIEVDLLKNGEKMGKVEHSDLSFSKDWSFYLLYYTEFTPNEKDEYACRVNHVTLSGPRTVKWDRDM
Assay: SPR pH 7.4;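 note: surface plasmon resonance kinetics, periplasmic extracts diluted 1:10 flowed over immobilized target at 25 °C, 120 s association then 600–3600 s dissociation, buffer with 150 mM NaCl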
readout.kind: koff (s⁻¹)

In the examples that follow, each entry is paired with its recorded koff.
[[record]]
binder = "T0263018B11 G26M (VHH, name in Kabat numbering, FLAG3-His6 tagged) VHH: EVQLVESGGGVVQPGGSLRLSCAASMFTFSSYAMYWVRQAPGKGLEWVSAISSGGGSTDYADSVKGRFTISRDNSKNTLYLQMNSLRPEDTALYYCAADTLYTSLTWYSYWGQGTLVTVSS"
readout_kind = "koff"
observed = 0.025

[[record]]
binder = "T0263018B11 Y32M (VHH, name in Kabat numbering, FLAG3-His6 tagged) VHH: EVQLVESGGGVVQPGGSLRLSCAASGFTFSSMAMYWVRQAPGKGLEWVSAISSGGGSTDYADSVKGRFTISRDNSKNTLYLQMNSLRPEDTALYYCAADTLYTSLTWYSYWGQGTLVTVSS"
readout_kind = "koff"
observed = 0.18


A: T0263018B11 W100cA (VHH, name in Kabat numbering, FLAG3-His6 tagged) VHH: EVQLVESGGGVVQPGGSLRLSCAASGFTFSSYAMYWVRQAPGKGLEWVSAISSGGGSTDYADSVKGRFTISRDNSKNTLYLQMNSLRPEDTALYYCAADTLYTSLTAYSYWGQGTLVTVSS
B: T0263018B11 F29I (VHH, name in Kabat numbering, FLAG3-His6 tagged) VHH: EVQLVESGGGVVQPGGSLRLSCAASGFTISSYAMYWVRQAPGKGLEWVSAISSGGGSTDYADSVKGRFTISRDNSKNTLYLQMNSLRPEDTALYYCAADTLYTSLTWYSYWGQGTLVTVSS
Data request: # return whichever of A and B has the smaller koff I would appreciate it if you answered with the label of your choice.
Data returned: B
(B: 0.083 s⁻¹, A: 0.5 s⁻¹)
